Hello, the source for this data is PubChem BioAssay (NCI), in case you need it.

# Test system: MCF7 breast
# ASSAY_EXPLANATION: NCI tumour cell line growth inhibition, 48 h; in the data active = GI50 below about 0.43 µM; inactive = the rest
// one of active, inactive, no free text

Take a look at these entries with their results.
[
  {
    "COMPOUND": "CS(=O)(=O)CCNCc1cc(-c2cc3c(Nc4ccc(OCc5cccc(F)c5)c(Cl)c4)ncnc3s2)cs1",
    "TESTED_ON": "MCF7 breast",
    "LABEL_CLASS": "inactive"
  },
  {
    "COMPOUND": "Cc1nc(N)nc2c1CCC(O)S2 (configuration not stated)",
    "TESTED_ON": "MCF7 breast",
    "LABEL_CLASS": "inactive"
  },
  {
    "COMPOUND": "COc1cc(F)c(F)c(Nc2ccc(I)cc2F)c1NS(=O)(=O)C1(C[C@H](O)CO)CC1",
    "TESTED_ON": "MCF7 breast",
    "LABEL_CLASS": "inactive"
  },
  {
    "COMPOUND": "CCNc1cc(-c2cccc(OC(F)(F)F)c2)nc2ccc(N3CCCC3)cc12",
    "TESTED_ON": "MCF7 breast",
    "LABEL_CLASS": "inactive"
  }
]

Task: Kindly provide the recorded test outcome for the following compound: CC[n+]1oc(C(=O)c2ccc(Cl)cc2)c(-c2ccccc2)c1-c1ccccc1.[Cl][Fe]([Cl])([Cl])[Cl]
Output: inactive

Task: Same lookup for CC(=O)c1ccc2c(c1)C1C=CCC1[C@H](c1cc3c(cc1Br)OCO3)N2 (some centres not stated) , please.
Output: active

Task: Same lookup for CCCCCCCCCCCCCCCCCC1=NC(C)(C)CN1CC(C)O (configuration not stated) , please.
Output: inactive
